Give z-score for every item shown.
experiment: blood-stage malaria parasite viability loss – strain 3D7, DAPI fluorescence, 100 nL, primary screen (AID 1184);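 further: parasites grown inside human red blood cells in medium with human serum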
condition.summary: P. falciparum 3D7 growth, 3 d, higher = more signal

query: Give me measured z-score, please, for this compound: C=CCOC(=O)[C@@H]1[C@H]2C(=O)O[C@H](c3ccccc3)[C@H](c3ccccc3)N2[C@H](c2ccc(OCCOC(=O)[C@H]3C[C@H]4C(=O)NCC(=O)N4[C@H]3c3cccc(OCCO)c3)cc2)[C@@]12C(=O)Nc1ccc(I)cc12
result: -1.9

query: Give me measured z-score, please, for this compound: COCC(=C=CC[C@H](O)c1ccccc1OCCO)C[C@H](O)COCc1ccccc1
result: -1.77

query: Give me measured z-score, please, for this compound: COCCOC(=O)N1C(=O)[C@@]2(c3cc(C#CCC(C(=O)OC)C(=O)OC)ccc31)[C@H](C(=O)Nc1nc3ccccc3s1)[C@H]1C(=O)O[C@H](c3ccccc3)[C@H](c3ccccc3)N1[C@@H]2c1ccc(O)cc1
result: -1.52

query: Give me measured z-score, please, for this compound: CCCCC(O)C1C=CC2C(=O)N(c3ccccc3)C(=O)C2N1Nc1ccccc1 (centres undefined)
result: -0.0871

###

Test system: Human papillomavirus type 1a protein E7 (residues 44-93)
experiment: small molecules binding HPV E7 44-93 – biochemical, small-molecule microarray, residues 44-93, 635 nm fluorescence, primary screen (AID 1108);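 further: E7 fragment applied at 1 µg/mL in TBST for 1 h at 4 C; score combines spot fluorescence with its signal to noise ratio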
condition.summary: fluorescence 635 nm, higher = more signal
observation.type: composite z-score
The answer should be a number; do not append a unit.

query: Give me measured composite z-score, please, for this molecule: CCCCCCc1nc(Cc2cc(OC)c(OC)c(OC)c2)cc2c1[Si](C(C)C)(C(C)C)O[C@H]2c1ccccc1
result: 0.192

query: Give me measured composite z-score, please, for this molecule: CN(C)C(=O)[C@]1(Cc2ccccc2)N=C(c2ccc(OCCCO)cc2)O[C@@H]1c1ccccc1CN=[N+]=[N-]
result: 1.41

query: Give me measured composite z-score, please, for this molecule: COC(=O)[C@@]1(Cc2ccccc2)[C@H]2c3cc(C(=O)N4CCCC4)n(Cc4ccc(OC)c(OC)c4)c3C[C@H]2CN1C(=O)c1ccccc1
result: 1.44

query: Give me measured composite z-score, please, for this molecule: COCCCN1C(=O)[C@@]2(c3ccc([N+](=O)[O-])cc3)CC(=O)N(CC34CC5CC(CC(C5)C3)C4)[C@@H]2c2ccc(CO)cc21
result: 0.372

query: Give me measured composite z-score, please, for this molecule: O=C1N(CCS(=O)(=O)c2ccccc2)c2ccccc2C[C@]12N=C(c1ccc(OCCCO)cc1)O[C@@H]2c1ccccc1
result: 1.42

query: Give me measured composite z-score, please, for this molecule: CCOC(=O)C1=CC[C@@H](c2ccc(OC)cc2)N(S(=O)(=O)c2ccc(C)cc2)[C@H]1CC
result: 1.18

query: Give me measured composite z-score, please, for this molecule: CC(C)(C)OC(=O)CC[C@@]1(C(=O)NCCN2CCOCC2)N=C(c2ccc(OCCCO)cc2)O[C@@H]1c1ccccc1CN=[N+]=[N-]
result: 1.02

query: Give me measured composite z-score, please, for this molecule: CCCCC(=C=CC[C@H](O)c1ccc(CO)o1)CCO
result: 0.906

query: Give me measured composite z-score, please, for this molecule: CC(C)C[C@@H]1NC(=O)[C@@]23C(=O)N[C@@H](Cc4ccccc4)C2[C@H](C)[C@@]2(C)O[C@H]2C3/C=C/C/C=C\CNC(=O)CNC1=O (some centres undefined)
result: 0.346

query: Give me measured composite z-score, please, for this molecule: COc1cc(C(O)C2C=CC3C(=O)N(c4ccccc4)C(=O)C3N2Nc2ccccc2)cc(OC)c1OC (centres undefined)
result: 1.46

query: Give me measured composite z-score, please, for this molecule: NC(=O)N1C(=O)C2C(C1=O)C1C=C(CCCO)C2C(C2CC2)N1Cc1sc2ccccc2c1Cl (centres undefined)
result: 0.173

query: Give me measured composite z-score, please, for this molecule: O=C1O[C@@H](c2ccccc2)[C@@H](c2ccccc2)N2[C@@H](c3ccc(OCCO)cc3)[C@]3(C(=O)Nc4ccc(C#CC5(O)CCCCCC5)cc43)[C@@H](C(=O)O)[C@H]12
result: 0.349

query: Give me measured composite z-score, please, for this molecule: CC(C)NC(=O)[C@@]1(C)c2ccccc2C(=O)N(Cc2ccccc2)[C@H]1c1ccc(CO)cc1
result: 0.864

query: Give me measured composite z-score, please, for this molecule: O=C1C2C=CC(C(O)C3CCCCC3)N(n3cnnc3)C2C(=O)N1Cc1ccccc1 (centres undefined)
result: 1.45

query: Give me measured composite z-score, please, for this molecule: COC(=O)[C@]1(CCC(=O)OC(C)(C)C)N=C(c2ccc(OCCCO)cc2)O[C@@H]1c1ccccc1N=[N+]=[N-]
result: 0.892

query: Give me measured composite z-score, please, for this molecule: [N-]=[N+]=NCc1ccccc1[C@@H]1OC(c2ccc(OCCCO)cc2)=N[C@]1(Cc1ccccc1N=[N+]=[N-])C(=O)O
result: 0.98

query: Give me measured composite z-score, please, for this molecule: COCCOC(=O)N1C(=O)[C@@]2(c3cc(C#CCC(C(=O)OC)C(=O)OC)ccc31)[C@H](C(=O)Nc1nc3ccccc3s1)[C@H]1C(=O)O[C@H](c3ccccc3)[C@H](c3ccccc3)N1[C@@H]2c1ccc(O)cc1
result: 1.42

query: Give me measured composite z-score, please, for this molecule: COc1ccc([Si](C)(C)[C@H]2[C@H](CC(=O)N3CCC[C@H]3CO)O[C@@]3(C(=O)N(Cc4ccc(N5CCCCC5=O)cc4)c4ccccc43)[C@@H]2C)cc1
result: 1.4

query: Give me measured composite z-score, please, for this molecule: COc1ccc([Si](C)(C)[C@@H]2[C@@H](CC(=O)N3CCC[C@H]3CO)O[C@]3(C(=O)N(Cc4cccc(N5CCCCC5=O)c4)c4ccccc43)[C@H]2C)cc1
result: 0.845

query: Give me measured composite z-score, please, for this molecule: N#Cc1ccc(C(O)C2C=CC3C(=O)NC(=O)C3N2Nc2ccc(Cl)cc2Cl)cc1 (centres undefined)
result: 0.544

query: Give me measured composite z-score, please, for this molecule: CC(C)N1C(=O)c2ccccc2[C@@H](C(=O)NCC(F)(F)F)[C@@H]1c1ccc(CO)cc1
result: 0.124

query: Give me measured composite z-score, please, for this molecule: CC(C)C(CO)N1C(=O)[C@@H]2C3C(=O)OCCC/C=C\[C@H]3OC23C=CCN(Cc2ccccc2)C(=O)[C@@H]13 (some centres undefined)
result: -1.78

query: Give me measured composite z-score, please, for this molecule: CC(C)C(=C=CC[C@H](O)c1ccccc1OCCO)C[C@H](O)COCc1ccccc1
result: 0.257

query: Give me measured composite z-score, please, for this molecule: COC(=O)[C@H](Cc1ccccc1)N1CC2=CCCC=C[C@@H]2[C@H]1[C@H](O)Cc1ccccc1
result: 0.216

query: Give me measured composite z-score, please, for this molecule: O=C(NCCN1CCOCC1)[C@@H]1c2ccccc2C(=O)N(Cc2ccccc2C(F)(F)F)[C@H]1c1ccc(CO)cc1
result: 1.01

query: Give me measured composite z-score, please, for this molecule: Cc1ccc(S[C@]2(C(=O)NCCCN(C)C)CC(=O)N(C3Cc4ccccc4C3)[C@@H]2c2ccc(CO)cc2I)cc1
result: 0.257

query: Give me measured composite z-score, please, for this molecule: CCCCC(O)C1C=CC2C(=O)N(c3ccccc3)C(=O)C2N1Nc1ccc(C#N)cc1 (centres undefined)
result: 1.02

query: Give me measured composite z-score, please, for this molecule: COCCOC(=O)N1C(=O)[C@@]2(c3cc(C#CCCO)ccc31)[C@H](c1ccccc1OCCO)N1[C@H](c3ccccc3)[C@H](c3ccccc3)OC(=O)[C@H]1[C@@H]2C(N)=O
result: 1.41

query: Give me measured composite z-score, please, for this molecule: C[C@@H]1NC(=O)C([C@@H](C)OCc2ccccc2)NC(=O)[C@@]23C(=O)N[C@@H](Cc4ccccc4)C2[C@H](C)[C@@]2(C)O[C@H]2C3/C=C/C/C=C\CNC1=O (some centres undefined)
result: -0.663
